All figures here come from patent US20200181255A1.

Reported kon values follow for various binders
- test.target: T1, recombinant human IL-23 (human, UniProt Q9NPF7 20-189; P29460 23-328)
- T1 construct: also called rhuIL-23; recombinant human (rhu) IL-23
- T1 sequence 1: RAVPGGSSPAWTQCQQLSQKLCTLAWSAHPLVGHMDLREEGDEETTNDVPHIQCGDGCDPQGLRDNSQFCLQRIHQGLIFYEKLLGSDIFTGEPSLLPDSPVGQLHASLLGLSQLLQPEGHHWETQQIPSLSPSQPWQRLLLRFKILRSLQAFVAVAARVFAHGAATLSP
- T1 sequence 2: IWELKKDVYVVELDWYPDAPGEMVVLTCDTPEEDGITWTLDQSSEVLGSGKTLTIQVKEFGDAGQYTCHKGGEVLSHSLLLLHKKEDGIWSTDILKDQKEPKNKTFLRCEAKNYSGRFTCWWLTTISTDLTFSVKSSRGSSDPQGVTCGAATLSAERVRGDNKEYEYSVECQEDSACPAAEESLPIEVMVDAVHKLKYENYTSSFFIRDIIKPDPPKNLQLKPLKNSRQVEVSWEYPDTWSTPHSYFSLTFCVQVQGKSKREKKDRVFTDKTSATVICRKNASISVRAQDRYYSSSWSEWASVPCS
- experiment.summary: KinExA
parameter: kon (M⁻¹ s⁻¹)

INSERT INTO results (binder, parameter, endpoint_value) VALUES
  ('Antibody G (antibody, V domains shown, also called VH12/VL12) VH: QVQLQESGPRLVKPSETLSLTCTVSGDSISSYFWSWIRQPPGKGLEWLGYIYYSGSTNYNPSLKSRVTISIDTSKNQFSLKLSSVTAADTAVYYCTRDRGSYYGSDYWGQGTLVTVSS VL: DIQMTQSPSSVSASVGDRVTITCRAGQVISSWLAWYQQKPGKAPKLLIYAASSLQSGVPSRFSGSGSGTDFTLTISSLQPDDFATYYCQQATSFPLTFGGGTKVEIK', 'kon', 400000),
  ('Antibody L (antibody, V domains shown, also called VH4/VL4) VH: QVQLVESGGGVVQPGRSLRLSCAASGFTFSSYAMHWVRQAPGKGLEWLSVISHDGSIKYYADSVKGRFTISRDNSKNTLYLQMNSLRAEDTAVYYCARERTTLSGSYFDYWGQGTLVTVSS VL: QAVLTQPSSLSASPGASASLTCTLRSGINVGTYRIYWYQQKPGSPPQYLLRYKSDSDKQQGSGVPSRFSGSKDASANAGILLISGLQSEDEADYYCMIWHSSASVFGGGTKLTVL', 'kon', '3.34e+06'),
  ('Antibody B (antibody, V domains shown, also called VH9/VL9) VH: QVQLQESGPGLVKPSQTLSLTCTVSGGSISSGGYYWSWIRQHPGKGLEWIGHIHYSGNTYYNPSLKSRVTISVDTSKNQFSLKLSSVTAADTAVYYCAKNRGFYYGMDVWGQGTTVTVSS VL: DIQMTQSPSSVSASVGDRVTITCRASQVISSWLAWYQQKPGKAPSLLIYAASSLQSGVPSRFSGSVSGTDFTLTISSLQPEDFATYYCQQANSFPFTFGPGTKVDFK', 'kon', '1.17e+06'),
  ('Antibody C (antibody, V domains shown, also called VH10/VL10) VH: QVQLQESGPGLVKPSQTLSLTCTVSGGSINSGGYYWSWIRQHPGKGLEWIGYIYYSGSSYYNPSLKSRVTISVDTSQNQFSLKLSSVTAADTAVYYCARDRGHYYGMDVWGQGTTVTVSS VL: DIQMTQSPSSVSASVGDRVTITCRASQGSSSWFAWYQQKPGKAPKLLIYAASSLQSGVPSRFSGSGSGTDFTLTISSLQPEDFATYYCQQANSFPFTFGPGTKVDIK', 'kon', '1.36e+06');
